# targetOrTestSystem: Orexin/Hypocretin receptor type 1 (Homo sapiens) (UniProt O43613)
# Sequence (O43613 whole entry): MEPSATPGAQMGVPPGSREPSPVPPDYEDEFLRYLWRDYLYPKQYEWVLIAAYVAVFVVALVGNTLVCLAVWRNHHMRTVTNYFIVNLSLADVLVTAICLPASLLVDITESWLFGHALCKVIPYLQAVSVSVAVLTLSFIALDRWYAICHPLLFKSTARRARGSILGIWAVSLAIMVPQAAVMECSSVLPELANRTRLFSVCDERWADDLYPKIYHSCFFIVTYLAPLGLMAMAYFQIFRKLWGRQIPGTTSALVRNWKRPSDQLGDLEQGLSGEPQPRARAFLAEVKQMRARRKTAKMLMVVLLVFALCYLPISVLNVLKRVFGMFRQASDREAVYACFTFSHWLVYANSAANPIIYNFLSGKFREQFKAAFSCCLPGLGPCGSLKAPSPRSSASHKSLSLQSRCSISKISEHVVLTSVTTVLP
# protocolSummary: Antagonist activity at human OX1 receptor expressed in CHO cells assessed as inhibition of receptor-mediated calcium response by FLIPR
# Type: functional, cell-based
measurementLabel: pKb
Note: the reply should be a number with no unit written.

I have this molecule here, Cn1ccc2cc(NC(=O)Nc3ccnc4ccccc34)ccc21 , and I need its recorded pKb.
7.5

Would you kindly share the measured pKb for Cc1nc2ccc(NC(=O)Nc3ccnc4ncccc34)cc2o1 ?
6.5

Returns the measured pKb for the input molecule. Input: CN(C)c1ccc(NC(=O)Nc2ccnc3ccccc23)cc1Cl
7.4

I am curious: what pKb value has been reported for CN(C)c1ccc(NC(=O)Nc2ccnc3ccccc23)cc1 ?
7.8

Param item = O=C(Nc1ccc2[nH]ccc2c1)Nc1ccnc2ccccc12 ; retrieve measured pKb.
6.2

----------
# targetOrTestSystem: Orexin receptor type 2 (Homo sapiens)
# Sequence (O43614 whole entry): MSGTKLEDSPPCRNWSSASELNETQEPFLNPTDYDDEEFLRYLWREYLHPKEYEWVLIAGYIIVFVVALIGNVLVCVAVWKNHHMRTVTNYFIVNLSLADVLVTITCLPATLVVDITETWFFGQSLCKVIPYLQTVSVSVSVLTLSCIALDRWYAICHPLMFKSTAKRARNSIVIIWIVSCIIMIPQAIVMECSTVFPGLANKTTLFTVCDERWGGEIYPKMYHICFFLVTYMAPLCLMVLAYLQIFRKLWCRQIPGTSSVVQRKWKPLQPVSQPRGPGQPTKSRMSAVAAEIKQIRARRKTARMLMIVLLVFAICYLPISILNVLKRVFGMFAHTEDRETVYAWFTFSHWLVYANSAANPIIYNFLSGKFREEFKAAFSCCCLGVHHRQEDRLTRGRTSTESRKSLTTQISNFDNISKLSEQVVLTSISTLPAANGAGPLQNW
# protocolSummary: Inhibition of OX2 receptor
The entries below come with measured IC50 values attached.
Your answer is read as µM, so omit the unit and give the number.

Take a look at these entries with their results.
INSERT INTO measurements (compound, targetortestsystem, obsvalue) VALUES
  ('COc1ccc(CC2c3cc(OC)c(OC)cc3CCN2CC(=O)NCc2ccccc2)cc1OC (racemic)', 'Orexin receptor type 2 (Homo sapiens)', 8.15),
  ('COc1ccc(CC2c3cc(OC)c(OC)cc3CCN2CC(=O)NC(C)c2ccccc2)cc1OC (racemic)', 'Orexin receptor type 2 (Homo sapiens)', 9.5),
  ('COc1cc2c(cc1OC)C(Cc1ccc(Oc3ncccn3)c(OC)c1)N(CC(=O)NCc1ccccc1)CC2 (stereo not given)', 'Orexin receptor type 2 (Homo sapiens)', 0.24),
  ('CCCCNC(=O)C(c1ccccc1)N1CCc2cc(OC)c(OC)cc2C1Cc1ccc(OC)c(OC)c1 (stereo not given)', 'Orexin receptor type 2 (Homo sapiens)', 1.81),
  ('CNC(=O)[C@@H](c1ccccc1)N1CCc2cc(OC)c(OC)cc2[C@@H]1CCc1ccc(C(F)(F)F)cc1', 'Orexin receptor type 2 (Homo sapiens)', 0.008);

Given COc1cc2c(cc1OC)C(Cc1ccccc1)N(CC(=O)NCc1ccccc1)CC2 (stereo not given) , state its recorded IC50.
6.1

Form field: reported IC50 of COc1ccc(CC2c3cc(OC)c(OC)cc3CCN2CC(=O)N(C)C2CCCCC2)cc1OC (racemic)
10

Using the record for COc1ccc2c(c1)C(NC(=O)CN1CCc3cc(OC)c(OC)cc3C1Cc1ccc(OC)c(OC)c1)CC2 (racemic) , report its IC50.
0.101
